system: CCRIS mutagenicity, Ames/micronucleus/aberration tests; test: CCRIS mutagenicity studies; conditions: Test System: UDS HUMAN HEPATOCYTES; Strain/Indicator: THY INCORP; Metabolic Activation: NONE; Method: AUTORADIOGRAPHY
Activity calls are given as the source filed them. How the calls were made is not given here.
I would appreciate it if you answered using one of these outcomes: 1 = active, 0 = inactive

These recorded examples may help you get a feel for the data.
Prompt: Returns: the outcome recorded for "Cn1c(N)nc2c3cccnc3ccc21" in this assay.
Response: 1

Prompt: Identify the outcome logged in this assay for the compound shown: "CCCCCCCCC=O"
Response: 0

Prompt: Lab log entry: "CC(C)[N+](=O)[O-]" — outcome as called in the assay?
Response: 1

Query compound follows.
Prompt: Lab log entry: "CCCCOCCOCCOCc1cc2c(cc1CCC)OCO2" — outcome as called in the assay?
Response: 0
